target: Mu-type opioid receptor (Mus musculus)
Sequence (P42866 whole entry): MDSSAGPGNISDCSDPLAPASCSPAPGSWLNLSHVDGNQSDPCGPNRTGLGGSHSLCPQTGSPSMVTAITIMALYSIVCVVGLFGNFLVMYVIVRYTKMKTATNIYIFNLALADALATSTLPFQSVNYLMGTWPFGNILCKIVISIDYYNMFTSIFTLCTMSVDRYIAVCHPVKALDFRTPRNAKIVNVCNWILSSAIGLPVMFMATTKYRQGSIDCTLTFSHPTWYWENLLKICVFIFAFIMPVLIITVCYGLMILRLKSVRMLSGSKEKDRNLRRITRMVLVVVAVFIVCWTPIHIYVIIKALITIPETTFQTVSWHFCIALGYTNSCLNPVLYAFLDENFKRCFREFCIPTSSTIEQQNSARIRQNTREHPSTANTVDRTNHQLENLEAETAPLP
# Lookup of reported pKi keyed by entry
As a rule, pKi stands for the negative log10 of the concentration, concentration in M.

| molecule smiles | pKi |
| --- | --- |
| O=C(CCc1cccs1)N[C@H]1CC[C@@]2(O)[C@H]3Cc4ccc(O)c5c4[C@@]2(CCN3CC2CC2)[C@H]1O5 | 9.32 |
| O=C(N[C@H]1CC[C@@]2(O)[C@H]3Cc4ccc(O)c5c4[C@@]2(CCN3CC2CC2)[C@H]1O5)c1ccco1 | 9.28 |
| O=C(N[C@@H]1CC[C@@]2(O)[C@H]3Cc4ccc(O)c5c4[C@@]2(CCN3CC2CC2)[C@H]1O5)c1cc[nH]c1 | 9.44 |
| O=C(Cc1ccoc1)N[C@H]1CC[C@@]2(O)[C@H]3Cc4ccc(O)c5c4[C@@]2(CCN3CC2CC2)[C@H]1O5 | 9.38 |

Asked: Value lookup for pKi; key = O=C(Cc1ccoc1)N[C@@H]1CC[C@@]2(O)[C@H]3Cc4ccc(O)c5c4[C@@]2(CCN3CC2CC2)[C@H]1O5
Given back: 9.66

Asked: And O=C(Cc1ccco1)N[C@H]1CC[C@@]2(O)[C@H]3Cc4ccc(O)c5c4[C@@]2(CCN3CC2CC2)[C@H]1O5 ?
Given back: 9.23

Asked: # repeat for O=C(Cc1ccc[nH]1)N[C@H]1CC[C@@]2(O)[C@H]3Cc4ccc(O)c5c4[C@@]2(CCN3CC2CC2)[C@H]1O5
Given back: 9.34

###

Test system: Mus musculus
test details: Antinociceptive activity against Swiss Webster mouse model assessed as increase in tail withdrawal latency from warm water by measuring maximum possible effect at 10 mg/kg, sc measured after 20 min by warm water tail immersion assay
Type: functional, organism-based
Calls of active or inactive are those of the source. The rule behind the calls is not given here.
Can you answer with just one of these options? active, inactive

| molecule smiles | answer label |
| --- | --- |
| O=C(Cc1ccoc1)N[C@@H]1CC[C@@]2(O)[C@H]3Cc4ccc(O)c5c4[C@@]2(CCN3CC2CC2)[C@H]1O5 | inactive |
| O=C(CCc1cc[nH]c1)N[C@H]1CC[C@@]2(O)[C@H]3Cc4ccc(O)c5c4[C@@]2(CCN3CC2CC2)[C@H]1O5 | inactive |
| O=C(N[C@@H]1CC[C@@]2(O)[C@H]3Cc4ccc(O)c5c4[C@@]2(CCN3CC2CC2)[C@H]1O5)c1ccsc1 | inactive |
| O=C(CCc1ccc[nH]1)N[C@H]1CC[C@@]2(O)[C@H]3Cc4ccc(O)c5c4[C@@]2(CCN3CC2CC2)[C@H]1O5 | inactive |
| O=C(Cc1ccoc1)N[C@H]1CC[C@@]2(O)[C@H]3Cc4ccc(O)c5c4[C@@]2(CCN3CC2CC2)[C@H]1O5 | inactive |
| O=C(Cc1ccco1)N[C@@H]1CC[C@@]2(O)[C@H]3Cc4ccc(O)c5c4[C@@]2(CCN3CC2CC2)[C@H]1O5 | inactive |

Asked: Could you check what this test reported for O=C(N[C@@H]1CC[C@@]2(O)[C@H]3Cc4ccc(O)c5c4[C@@]2(CCN3CC2CC2)[C@H]1O5)c1cc[nH]c1 ?
Given back: active

Asked: Next entry: O=C(N[C@H]1CC[C@@]2(O)[C@H]3Cc4ccc(O)c5c4[C@@]2(CCN3CC2CC2)[C@H]1O5)c1ccsc1
Given back: inactive

Asked: What do we get for O=C(N[C@@H]1CC[C@@]2(O)[C@H]3Cc4ccc(O)c5c4[C@@]2(CCN3CC2CC2)[C@H]1O5)c1ccoc1 ?
Given back: active

###

Test system Delta-type opioid receptor (Homo sapiens), Ki listed for each of the compounds.
Write it as a number; the unit nM goes unstated.

Asked: So what does the record say about Ki for O=C(CCc1cc[nH]c1)N[C@@H]1CC[C@@]2(O)[C@H]3Cc4ccc(O)c5c4[C@@]2(CCN3CC2CC2)[C@H]1O5 ?
Given back: 67.5

Asked: Now consider O=C(N[C@@H]1CC[C@@]2(O)[C@H]3Cc4ccc(O)c5c4[C@@]2(CCN3CC2CC2)[C@H]1O5)c1cc[nH]c1 .
Given back: 107

Asked: Further, for O=C(CCc1ccc[nH]1)N[C@H]1CC[C@@]2(O)[C@H]3Cc4ccc(O)c5c4[C@@]2(CCN3CC2CC2)[C@H]1O5 ?
Given back: 7.58

###

Recorded EC50 by entry
target: Mu-type opioid receptor (Mus musculus)
test details: Partial agonist activity at mouse mu opioid receptor expressed in CHO cell membranes incubated for 1.5 hrs by [35S]GTPgammaS binding based liquid scintillation counting method
// note: answer is a bare numeric in nM

Some compounds with known EC50 results, for comparison:
| molecule smiles | units label | EC50 |
| --- | --- | --- |
| O=C(Cc1ccsc1)N[C@H]1CC[C@@]2(O)[C@H]3Cc4ccc(O)c5c4[C@@]2(CCN3CC2CC2)[C@H]1O5 | nM | 1.21 |
| O=C(CCc1cccs1)N[C@H]1CC[C@@]2(O)[C@H]3Cc4ccc(O)c5c4[C@@]2(CCN3CC2CC2)[C@H]1O5 | nM | 3.06 |
| O=C(N[C@@H]1CC[C@@]2(O)[C@H]3Cc4ccc(O)c5c4[C@@]2(CCN3CC2CC2)[C@H]1O5)c1ccco1 | nM | 0.98 |

Asked: Would you kindly share the measured EC50 for O=C(CCc1ccc[nH]1)N[C@H]1CC[C@@]2(O)[C@H]3Cc4ccc(O)c5c4[C@@]2(CCN3CC2CC2)[C@H]1O5 ?
Given back: 3.79

###

target: UniProt P42866
test details: Partial agonist activity at mouse mu opioid receptor expressed in CHO cell membranes incubated for 1.5 hrs by [35S]GTPgammaS binding based liquid scintillation counting method
List of pEC50 values.
Please treat pEC50 as minus the base-10 logarithm of the molar concentration.

Before answering, review these 2 worked examples.
| molecule smiles | target | pEC50 |
| --- | --- | --- |
| O=C(Cc1ccoc1)N[C@H]1CC[C@@]2(O)[C@H]3Cc4ccc(O)c5c4[C@@]2(CCN3CC2CC2)[C@H]1O5 | UniProt P42866 | 8.08 |
| O=C(N[C@H]1CC[C@@]2(O)[C@H]3Cc4ccc(O)c5c4[C@@]2(CCN3CC2CC2)[C@H]1O5)c1ccoc1 | UniProt P42866 | 8.12 |

Switching to the query record.
Asked: # get_value(readout='pEC50', item= O=C(N[C@H]1CC[C@@]2(O)[C@H]3Cc4ccc(O)c5c4[C@@]2(CCN3CC2CC2)[C@H]1O5)c1ccco1 )
Given back: 8.02

###

System: Mus musculus
test details: Antinociceptive activity against Swiss Webster mouse model assessed as increase in tail withdrawal latency from warm water by measuring maximum possible effect at 10 mg/kg, sc measured after 20 min by warm water tail immersion assay
Type: functional, organism-based
Calls of active or inactive are those of the source. No cut-off for these calls is given here.
Just give me one of these, please: active, inactive

Worked set:
| molecule smiles | target | answer label |
| --- | --- | --- |
| O=C(CCc1cc[nH]c1)N[C@@H]1CC[C@@]2(O)[C@H]3Cc4ccc(O)c5c4[C@@]2(CCN3CC2CC2)[C@H]1O5 | Mus musculus | inactive |
| O=C(Cc1cc[nH]c1)N[C@@H]1CC[C@@]2(O)[C@H]3Cc4ccc(O)c5c4[C@@]2(CCN3CC2CC2)[C@H]1O5 | Mus musculus | inactive |
| O=C(CCc1cccs1)N[C@@H]1CC[C@@]2(O)[C@H]3Cc4ccc(O)c5c4[C@@]2(CCN3CC2CC2)[C@H]1O5 | Mus musculus | active |

Asked: Fill in: this test's call for O=C(CCc1ccco1)N[C@@H]1CC[C@@]2(O)[C@H]3Cc4ccc(O)c5c4[C@@]2(CCN3CC2CC2)[C@H]1O5 is ___
Given back: inactive

Asked: # repeat for O=C(CCc1ccoc1)N[C@@H]1CC[C@@]2(O)[C@H]3Cc4ccc(O)c5c4[C@@]2(CCN3CC2CC2)[C@H]1O5
Given back: inactive

###

target: Delta-type opioid receptor (Homo sapiens, UniProt P41143)
Sequence (P41143 whole entry): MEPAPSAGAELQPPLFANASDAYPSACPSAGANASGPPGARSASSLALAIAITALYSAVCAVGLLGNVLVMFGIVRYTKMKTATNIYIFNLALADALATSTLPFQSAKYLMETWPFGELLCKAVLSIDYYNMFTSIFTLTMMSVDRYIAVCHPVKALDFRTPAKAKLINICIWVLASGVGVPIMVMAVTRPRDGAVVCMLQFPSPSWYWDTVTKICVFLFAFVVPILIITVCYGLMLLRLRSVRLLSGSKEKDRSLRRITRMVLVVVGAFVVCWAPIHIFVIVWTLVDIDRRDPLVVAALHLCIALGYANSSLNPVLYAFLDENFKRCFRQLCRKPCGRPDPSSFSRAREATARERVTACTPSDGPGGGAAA
Label Condition met when Ki < 40 nM; otherwise Condition not met.

| molecule smiles | answer label |
| --- | --- |
| O=C(N[C@H]1CC[C@@]2(O)[C@H]3Cc4ccc(O)c5c4[C@@]2(CCN3CC2CC2)[C@H]1O5)c1ccco1 | Condition met |

Asked: Does the reported Ki of O=C(Cc1ccoc1)N[C@H]1CC[C@@]2(O)[C@H]3Cc4ccc(O)c5c4[C@@]2(CCN3CC2CC2)[C@H]1O5 stay below 40 nM?
Given back: Condition met

Asked: Can you handle O=C(CCc1cc[nH]c1)N[C@H]1CC[C@@]2(O)[C@H]3Cc4ccc(O)c5c4[C@@]2(CCN3CC2CC2)[C@H]1O5 next?
Given back: Condition met

Asked: How about this compound: O=C(CCc1ccc[nH]1)N[C@@H]1CC[C@@]2(O)[C@H]3Cc4ccc(O)c5c4[C@@]2(CCN3CC2CC2)[C@H]1O5
Given back: Condition met

###

target: Delta-type opioid receptor (Homo sapiens)
pKi: −log10 of the molar value.
Binary classification by pKi, with 8 as an inclusive lower bound for true (1); all other cases are false (0).

Worked set:
| molecule smiles | answer label |
| --- | --- |
| O=C(Cc1ccsc1)N[C@H]1CC[C@@]2(O)[C@H]3Cc4ccc(O)c5c4[C@@]2(CCN3CC2CC2)[C@H]1O5 | false (0) |
| O=C(Cc1ccco1)N[C@H]1CC[C@@]2(O)[C@H]3Cc4ccc(O)c5c4[C@@]2(CCN3CC2CC2)[C@H]1O5 | true (1) |
| O=C(Cc1ccoc1)N[C@@H]1CC[C@@]2(O)[C@H]3Cc4ccc(O)c5c4[C@@]2(CCN3CC2CC2)[C@H]1O5 | false (0) |
| O=C(Cc1ccco1)N[C@@H]1CC[C@@]2(O)[C@H]3Cc4ccc(O)c5c4[C@@]2(CCN3CC2CC2)[C@H]1O5 | false (0) |
| O=C(Cc1cc[nH]c1)N[C@@H]1CC[C@@]2(O)[C@H]3Cc4ccc(O)c5c4[C@@]2(CCN3CC2CC2)[C@H]1O5 | false (0) |
| O=C(Cc1ccc[nH]1)N[C@H]1CC[C@@]2(O)[C@H]3Cc4ccc(O)c5c4[C@@]2(CCN3CC2CC2)[C@H]1O5 | true (1) |

Asked: Record O=C(Cc1ccc[nH]1)N[C@@H]1CC[C@@]2(O)[C@H]3Cc4ccc(O)c5c4[C@@]2(CCN3CC2CC2)[C@H]1O5 ; criterion: pKi no lower than 8. Met?
Given back: false (0)
